Values from patent US20240199644A1

# tested_system: GDP-loaded HIS-KRAS(G12D, aa 1-169) (Homo sapiens (Human), UniProt P01116, G12D)
# Sequence (P01116 other isoform, or with tags, fused parts or gaps G12D): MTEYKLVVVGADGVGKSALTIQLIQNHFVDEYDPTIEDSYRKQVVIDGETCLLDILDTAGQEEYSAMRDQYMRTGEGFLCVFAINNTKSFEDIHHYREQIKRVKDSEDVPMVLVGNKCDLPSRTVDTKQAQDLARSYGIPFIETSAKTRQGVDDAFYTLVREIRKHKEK
# experiment_notes: SOS1 catalyzed nucleotide exchange assay
# condition_set: TR-FRET; 1.5 nM GDP-loaded HIS-KRAS(G12D), 0.5 μM SOS1 ExD, 4 hours at 25° C.
Listed molecules paired with reported pIC50
When answering, recall that pIC50 equals minus log10 of the concentration in mol/L, and write that number alone.

molecule: C#Cc1c(F)ccc2cc(O)cc(-c3cc4c5c(nc(OCC6(CN7CCOCC7)CC6)nc5c3F)N3C[C@H]5CC[C@H](N5)[C@H]3CO4)c12
measured_parameter: pIC50
recorded_measurement: 8.94

Problem: Name the value of pIC50 reported for C#Cc1c(F)ccc2cc(O)cc(-c3c(Cl)c4c5c(nc(OC[C@@]67CCCN6C[C@H](F)C7)nc5c3F)N3C[C@H]5CC[C@H](N5)[C@H]3CO4)c12 (atropisomer, axis not shown) [Compound 13] when tested on GDP-loaded HIS-KRAS(G12D, aa 1-169) (Homo sapiens (Human), UniProt P01116, G12D).
Solution: 9.16

Problem: Name the value of pIC50 reported for C#Cc1cccc2cc(O)cc(-c3cc4c5c(nc(OCC6(CN7CCOCC7)CC6)nc5c3F)N3C[C@H]5CC[C@H](N5)[C@@H]3CO4)c12 when tested on GDP-loaded HIS-KRAS(G12D, aa 1-169) (Homo sapiens (Human), UniProt P01116, G12D).
Solution: 8.60

Problem: Name the value of pIC50 reported for C#Cc1c(F)ccc2cc(O)cc(-c3nc4c5c(nc(OC[C@@]67CCCN6C[C@H](F)C7)nc5c3F)N3C[C@H]5CC[C@H](N5)[C@H]3CO4)c12 when tested on GDP-loaded HIS-KRAS(G12D, aa 1-169) (Homo sapiens (Human), UniProt P01116, G12D).
Solution: 9.64

Problem: Name the value of pIC50 reported for C#Cc1cccc2cc(O)cc(-c3cc4c5c(nc(OCC6(CN7CCOCC7)CC6)nc5c3F)N3C[C@H]5CC[C@H](N5)[C@H]3CO4)c12 when tested on GDP-loaded HIS-KRAS(G12D, aa 1-169) (Homo sapiens (Human), UniProt P01116, G12D).
Solution: 8.94

---

Listed compounds paired with reported IC50
# tested_system: GDP-loaded HIS-KRAS(G12D, aa 1-169) (Homo sapiens (Human), UniProt P01116, G12D)
# experiment_notes: SOS1 catalyzed nucleotide exchange assay
# Format: biochemical
# condition_set: TR-FRET; 1.5 nM GDP-loaded HIS-KRAS(G12D), 0.5 μM SOS1 ExD, 4 hours at 25° C.
Write down the numeric answer in nM and omit the unit.

Example entries and their recorded answers appear below.
compound: C#Cc1c(F)ccc2cc(O)cc(-c3c(Cl)c4c5c(nc(OC[C@@]67CCCN6C[C@H](F)C7)nc5c3F)N3C[C@H]5CC[C@H](N5)[C@H]3CO4)c12 (atropisomer, axis not shown) [Compound 12]
measured_parameter: IC50
recorded_measurement: 35.8
//
compound: C#Cc1c(F)ccc2cc(O)cc(-c3nc4c5c(nc(OC[C@@]67CCCN6C[C@H](F)C7)nc5c3F)N3C[C@@H]5CC[C@@H](N5)[C@@H]3CO4)c12
measured_parameter: IC50
recorded_measurement: 32.6

Problem: Name the value of IC50 reported for C#Cc1cccc2cc(O)cc(-c3cc4c5c(nc(OCC6(CN7CCOCC7)CC6)nc5c3F)N3[C@@H]5CN[C@@H](C5)[C@@H]3CO4)c12 when tested on GDP-loaded HIS-KRAS(G12D, aa 1-169) (Homo sapiens (Human), UniProt P01116, G12D).
Solution: 11

Problem: Name the value of IC50 reported for C#Cc1cccc2cc(O)cc(-c3cc4c5c(nc(OCC6(CN7CCOCC7)CC6)nc5c3F)N3[C@H]5CN[C@H](C5)[C@@H]3CO4)c12 when tested on GDP-loaded HIS-KRAS(G12D, aa 1-169) (Homo sapiens (Human), UniProt P01116, G12D).
Solution: 86.1

Problem: Name the value of IC50 reported for Oc1cc(-c2cc3nc(OC[C@@]45CCCN4C[C@H](F)C5)nc4c3c(c2Cl)OC[C@H]2CNCCN42)c2ccccc2c1 when tested on GDP-loaded HIS-KRAS(G12D, aa 1-169) (Homo sapiens (Human), UniProt P01116, G12D).
Solution: 294
